Taken from patent US5219741A.

System: N-acyl-L-proline acylase
Type: biochemical, Comamonas testosteroni DSM 5416
particulars: metal cation salt 10 mM; native enzyme; no agent = 100
Please enter Met where Activity (%) is greater than or equal to 60%, and Not met where it is lower.

Exercise: Item [Cl][Sn][Cl] with Activity (%) of 60% or above?
Solution: Not met

Exercise: Item [Cl][Fe]([Cl])[Cl] with Activity (%) of 60% or above?
Solution: Not met

Exercise: Item O=S(=O)([O-])[O-].[Zn+2] with Activity (%) of 60% or above?
Solution: Not met

Exercise: Item O=[N+]([O-])[O-].O=[N+]([O-])[O-].[Ni+2] with Activity (%) of 60% or above?
Solution: Met

Exercise: Item [Cl][Cd][Cl] with Activity (%) of 60% or above?
Solution: Met

Exercise: Item [Ca+2].[Cl-].[Cl-] with Activity (%) of 60% or above?
Solution: Met

Exercise: Item [Cl-].[Cl-].[Sr+2] with Activity (%) of 60% or above?
Solution: Met

Exercise: Item O=S(=O)([O-])[O-].[Cu+2] with Activity (%) of 60% or above?
Solution: Not met

Exercise: Item [Cl-].[Cl-].[Co+2] with Activity (%) of 60% or above?
Solution: Met

Exercise: Item [Cl][Mn][Cl] with Activity (%) of 60% or above?
Solution: Met

Exercise: Item [Cl-].[Cl-].[Mg+2] with Activity (%) of 60% or above?
Solution: Met

Exercise: Item [Cl][Hg][Cl] with Activity (%) of 60% or above?
Solution: Not met

Exercise: Item [Ba+2].[Cl-].[Cl-] with Activity (%) of 60% or above?
Solution: Met

----------
Tested on: 1,10-phenanthroline-inactivated acylase (apoenzyme)
experiment: Influence of cations on the 1,10-phenanthroline-inactivated acylase
Format: biochemical, Comamonas testosteroni DSM 5416
particulars: inactivated enzyme after gel filtration + cation 1 mM; native enzyme = 100, no agent = 21
Label yes when Activity (%) is strictly below 20%; otherwise label no.

Exercise: Record [Cl][Hg][Cl] : is its Activity (%) strictly below 20%?
Solution: yes

Exercise: Record O=S(=O)([O-])[O-].[Fe+2] : is its Activity (%) strictly below 20%?
Solution: yes

Exercise: Record O=S(=O)([O-])[O-].[Zn+2] : is its Activity (%) strictly below 20%?
Solution: no

Exercise: Record O=S(=O)([O-])[O-].[Cu+2] : is its Activity (%) strictly below 20%?
Solution: yes

Exercise: Record [Cl][Fe]([Cl])[Cl] : is its Activity (%) strictly below 20%?
Solution: yes

Exercise: Record [Cl-].[Cl-].[Co+2] : is its Activity (%) strictly below 20%?
Solution: no

Exercise: Record [Cl][Sn][Cl] : is its Activity (%) strictly below 20%?
Solution: yes

Exercise: Record [Cl-].[Cl-].[Sr+2] : is its Activity (%) strictly below 20%?
Solution: no

Exercise: Record [Cl][Mn][Cl] : is its Activity (%) strictly below 20%?
Solution: no

Exercise: Record [Ca+2].[Cl-].[Cl-] : is its Activity (%) strictly below 20%?
Solution: yes

Exercise: Record O=[N+]([O-])[O-].O=[N+]([O-])[O-].[Ni+2] : is its Activity (%) strictly below 20%?
Solution: no

Exercise: Record [Ba+2].[Cl-].[Cl-] : is its Activity (%) strictly below 20%?
Solution: yes

Exercise: Record [Cl-].[Cl-].[Mg+2] : is its Activity (%) strictly below 20%?
Solution: no
